Ref: the supplement of paper PMC5908809

# Tested on: NK-YS (IL-2 2.5 ng/mL);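 note: normalised to DMSO-only wells as negative and benzethonium chloride as positive control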
# TEST SUMMARY: percent inhibition of viability; higher = more inhibition
# CONDITIONS USED: 72 h; 10 nM
// reported percent inhibition of viability per item
Give the value, in units of %, as a plain number.

As a guide, the following entries are already answered.
                                   compound  readout_value
0  COc1cc(Nc2c(C#N)cnc3cc(OCCCN4CCN(C)CC4)c(OC)cc23)c(Cl)cc1Cl [Bosutinib] (max concentration tested 10000 nM)          -3.22
1  CS(=O)(=O)c1ccc(C2=C(c3ccccc3)C(=O)OC2)cc1 [Rofecoxib] (max concentration tested 10000 nM)           -3.6

Next compound, please.
Enquiry: Quick one: percent inhibition of viability of O=c1ncn2nc(Sc3ccc(F)cc3F)ccc2c1-c1c(Cl)cccc1Cl [VX 745] (max concentration tested 10000 nM) ?
Return: -3.47
